# System: HEK-293T
# TEST_METHOD_NOTES: Multiplex assay against HEK293T
# Type: toxicity, cell-based
# REPORTED_CONDITIONS: human, 24 h, 1 µM, compound concentration 1 uM, replicate 1
Property: Population Normal (%); scope: individual compounds

{"COMPOUND": "COC(=O)C1=C(C)NC(C)=C(C(=O)OCCCN2CCC(c3ccccc3)(c3ccccc3)CC2)[C@H]1c1cccc([N+](=O)[O-])c1", "MEASURED_TARGET": "HEK-293T", "Population Normal (%)": "88%"}
{"COMPOUND": "C=CC(=O)Nc1cccc(Sc2nc(Nc3ccc(N4CCN(C)CC4)cc3)ncc2Cl)c1", "MEASURED_TARGET": "HEK-293T", "Population Normal (%)": "85%"}
{"COMPOUND": "CC(C)c1noc(N2CCC(COc3ccc(-c4ccc(S(C)(=O)=O)cc4)nc3)CC2)n1", "MEASURED_TARGET": "HEK-293T", "Population Normal (%)": "80%"}
{"COMPOUND": "COc1cc(Nc2nccc(-c3cnn4nc(OC)ccc34)n2)cc(C(F)(F)F)c1", "MEASURED_TARGET": "HEK-293T", "Population Normal (%)": "79%"}
{"COMPOUND": "O=c1cc(N2CCOCC2)oc2c(-c3cccc4c3sc3ccccc34)cccc12", "MEASURED_TARGET": "HEK-293T", "Population Normal (%)": "87%"}
{"COMPOUND": "Cc1nc(N2CC[C@H](O)C2)ncc1-c1cc(C(F)(F)F)cc2[nH]ncc12", "MEASURED_TARGET": "HEK-293T", "Population Normal (%)": "94%"}
{"COMPOUND": "CC1=C(C(=O)Nc2cc3cn[nH]c3cc2F)C(c2ccc(C(F)(F)F)cc2)CC(=O)N1 (stereo not drawn)", "MEASURED_TARGET": "HEK-293T", "Population Normal (%)": "87%"}
{"COMPOUND": "Cc1cccc(CN2CCN(C(c3ccccc3)c3ccc(Cl)cc3)CC2)c1.Cl.Cl (stereo not drawn)", "MEASURED_TARGET": "HEK-293T", "Population Normal (%)": "82%"}

----------
Entries and their Population Healthy Nuclei (%)
# Test system: HEK-293T
# TEST_METHOD_NOTES: Multiplex assay against HEK293T
# Assay type: toxicity, cell-based
# REPORTED_CONDITIONS: human, 48 h, 10 µM, compound concentration 10 uM, replicate 1

{"MOLECULE": "CC(C)Oc1ccccc1C(=O)Nc1ccccc1C(=O)Nc1cccc(S(=O)(=O)C(F)(F)F)c1", "MEASURED_TARGET": "HEK-293T", "UNIT_ANNOTATION": "%", "Population Healthy Nuclei (%)": 30}
{"MOLECULE": "CCc1nn(CCCN2CCN(c3cccc(Cl)c3)CC2)c(=O)n1CCOc1ccccc1.Cl [NEFAZODONE HYDROCHLORIDE]", "MEASURED_TARGET": "HEK-293T", "UNIT_ANNOTATION": "%", "Population Healthy Nuclei (%)": 33}
{"MOLECULE": "CCOC(=O)Nc1cc(-c2ccc(C)c(NS(C)(=O)=O)c2)nn2c(C)nnc12", "MEASURED_TARGET": "HEK-293T", "UNIT_ANNOTATION": "%", "Population Healthy Nuclei (%)": 48}
{"MOLECULE": "COc1ccc(-c2ccc3ncc4c(c3c2)n(-c2ccc(N3CCNCC3)c(C(F)(F)F)c2)c(=O)n4C)cn1.O=C(O)/C=C\\C(=O)O [BGT-226]", "MEASURED_TARGET": "HEK-293T", "UNIT_ANNOTATION": "%", "Population Healthy Nuclei (%)": 0}
